experiment: Phase I single ascending dose study, pharmacokinetics
Assay type: in vivo, human
details: both sexes, human, plasma; single-dose study, oral; SEM 2 hr; read-out: plasma elimination half-life (converted)
Where a name gives a salt, the structure may show the parent alone.
testReadout: half-life (h)
Write the answer as a number in h, unit excluded.

Per the records, this molecule ( OC[C@H]1CNC[C@@H](O)[C@@H]1O [isofagomine tartrate, Isofagomine tartrate] ) has half-life equal to 14

---

experiment: Phase I single ascending dose study, pharmacokinetics
Format: in vivo, human
details: both sexes, human, plasma; single-dose study, oral; SEM 0.6 hr; read-out: time at which mean plasma levels peaked (Tmax)
Protocol: Isofagomine tartrate is a pharmacological chaperone in development for the treatment of the lysosomal storage disorder Gaucher disease. Using cell-based and animal models we have shown that isofagomine increases cellular levels of glucocerebrosidase (GCase), the enzyme deficient in Gaucher disease. Randomized double-blind Phase I clinical studies were performed in 72 healthy volunteers, (39 male, 33 female). Isofagomine tartrate was orally administered as an aqueous solution. […]
Structures can show the parent of a compound that is named as a salt.
testReadout: Tmax (h)
The answer is to be given in h; state only the numeric part.

Tmax measured on OC[C@H]1CNC[C@@H](O)[C@@H]1O [isofagomine tartrate, Isofagomine tartrate] = 3.4
